assay_system: TEAD4 (protein of the SPR and TR-FRET assays) (human)
run_description: SPR; peptides against TEAD4; Kd at equilibrium; peptide stocks in DMSO or in acetonitrile:(water + 1 mM TCEP)
Listing of entries alongside the reported Kd.
observed_property: Kd (nM)

{"binder": "Ac-CVVFTNYSGDTASQVDEHFSRALNYNNKDSKESSSPMSNRNFPPSFWNSN-NH2 (peptide, UniProt Q26366 288-337, looked up, source: synthetic peptide, bought: Biosynthan) [Vg^288–337]", "display_unit": "nM", "assay_value": 3.1}
{"binder": "Ac-CVLFTYFQGDISSVVDEHFSRALS-NH2 [VGLL2^85–108]", "display_unit": "nM", "assay_value": 590}
{"binder": "VGLL2^85–149 (peptide) peptide: Ac-CVLFTYFQGDISSVVDEHFSRALSQPSSYSPSCTSSKAPRSSGPWRDCSFPMSQRSFPASFWNSA-NH2", "display_unit": "nM", "assay_value": 34}
